- assay_overview: pharmacokinetic study in ICR mice
- Format: in vivo
- test_conditions: male, mouse, plasma, oral 10 mg/kg, 0 to 24 h, mean ± SD of four mice
endpoint_label: AUC (ng·h/mL)
Reply numerically in ng·h/mL, unit not repeated.

Query: Requested read-out: AUC. Entry: Cc1ccc(-c2ccc(F)cc2NC(=O)c2ccc(OCC(=O)O)c(F)c2)cc1 [Compound 10f]
Result: 9830

---

- assay_overview: pharmacokinetic study in ICR mice
- Assay type: in vivo
- test_conditions: male, mouse, plasma, oral 10 mg/kg, 0.5% methyl cellulose, mean ± SD of four mice
endpoint_label: Cmax

Query: Requested read-out: Cmax. Entry: Cc1ccc(-c2ccc(F)cc2NC(=O)c2ccc(OCC(=O)O)c(F)c2)cc1 [Compound 10f]
Result: 3140 ng/mL
